tested on: Streptococcus faecalis ATTC 29212; experiment: in vitro antibacterial MIC, agar plate dilution; format: cell-based; conditions: Enterococcus faecalis, ATTC29212, 18 hours, 35° C., read-out: MIC
metric-name: MIC (µg/mL)
Dear colleague, please return just the value in µg/mL, with no unit written.

Find the recorded MIC belonging to CCCCCCOCC1CN(c2cc3c(cc2F)c(=O)c(C(=O)O)cn3CC)CCN1 (centres unmarked) [Example 77] and report it.
8

Look up MIC: CCn1cc(C(=O)O)c(=O)c2c(F)c(F)c(N3CCSCC3)c(F)c21 [Example 89]
8

Record request: MIC value, item CCn1cc(C(=O)O)c(=O)c2cc(F)c(N3CCN(C)C(c4ccn(S(=O)(=O)c5ccccc5)c4)C3)cc21 (centres unmarked) [Example 49]
64

For the molecule CCCCCCCCCCCCOCC1CN(c2cc3c(cc2F)c(=O)c(C(=O)O)cn3CC)CCN1 (centres unmarked) [Example 74] , what MIC is on record?
128

For the molecule CCn1cc(C(=O)O)c(=O)c2cc(F)c(N3CCNC(CNC)C3)cc21.Cl.Cl (centres unmarked) [Example 53] , what MIC is on record?
32

// lookup MIC for CCn1cc(C(=O)O)c(=O)c2cc(F)c(N3CCNC(c4cc(C)sc4C)C3)cc21 (centres unmarked) [Example 48]
0.25

Request the reported MIC associated with CN1CCN(c2cc3c(cc2F)c(=O)c(C(=O)O)cn3C2CC2)CC1c1ccsc1 (centres unmarked) [Example 66]
0.5

* * *

test system: Serratia marcescens K 84-18; experiment: in vitro antibacterial MIC, agar plate dilution; format: cell-based; conditions: Serratia marcescens, K8418, 18 h, 35° C., read-out: MIC
metric-name: MIC (µg/mL)
# number only, unit µg/mL dropped from output

Recorded MIC for CCn1cc(C(=O)O)c(=O)c2cc(F)c(N3CCN(C)C(c4ccnn4C)C3)cc21 (stereo not drawn) [Example 110] with Serratia marcescens K 84-18, please?
8

Give Serratia marcescens K 84-18 MIC for CCn1cc(C(=O)O)c(=O)c2cc(F)c(N3CCNC(c4ccncc4)C3)c(F)c21 (stereo not drawn) [Example 127]
1

Query for Serratia marcescens K 84-18: what MIC does the record show for O=C(O)c1cn(-c2ccc(F)cc2)c2cc(N3CCNC(COc4ccccc4)C3)c(F)cc2c1=O (stereo not drawn) [Example 84] ?
32

Entry O=C(O)c1cn(-c2ccc(F)cc2)c2cc(N3CCNC(c4ccsc4)C3)c(F)cc2c1=O (stereo not drawn) [Example 100] , system Serratia marcescens K 84-18: what MIC was measured?
4

Form entry - test system: Serratia marcescens K 84-18; read-out: MIC; compound: CCn1cc(C(=O)O)c(=O)c2c(F)c(F)c(N3CCN(C)CC3)c(F)c21 [Example 85]
0.5

# value lookup — system Serratia marcescens K 84-18, readout MIC, item CCn1cc(C(=O)O)c(=O)c2cc(F)c(N3CCN(C)C(CF)C3)c(F)c21 (racemic) [Example 113]
2

* * *

system: Serratia marcescens F 0-35; assay: in vitro antibacterial MIC, agar plate dilution; type: cell-based; conditions: Serratia marcescens, F035, 18 h, 35° C., read-out: MIC
metric-name: MIC

Can you look up the measured MIC of CCn1cc(C(=O)O)c(=O)c2cc(F)c(N3CCNC(c4sc5ccccc5c4C)C3)cc21 (stereo not drawn) for me?
> 256 µg/mL

# get_value(readout='MIC', item= CCCCCCCCCCCCOCC1CN(c2cc3c(cc2F)c(=O)c(C(=O)O)cn3CC)CCN1 (stereo not drawn) )
> 256 µg/mL

I am curious: what MIC value has been reported for CCn1cc(C(=O)O)c(=O)c2cc(F)c(N3CCNC(c4ccsc4)C3)cc21 (stereo not drawn) ?
1 µg/mL

Sourced from patent US5210193A
